Reference for the values: paper PMC5059843

method summary: Rat pharmacokinetics of PPT alone
Type: in vivo
run conditions: male, Sprague-Dawley, plasma
readout type: Cmax (µM)

# compound, readout type, value units, result value
data = [
    ("COc1cc([C@@H]2c3cc4c(cc3[C@H](O)[C@H]3COC(=O)[C@H]23)OCO4)cc(OC)c1OC [PPT, Podophyllotoxin]", "Cmax", "µM", 3.94),
]
